The entries below are paired with their reported pIC50.
tested target: RORγt (Homo sapiens (Human), UniProt P51449)
Sequence (P51449 269-508): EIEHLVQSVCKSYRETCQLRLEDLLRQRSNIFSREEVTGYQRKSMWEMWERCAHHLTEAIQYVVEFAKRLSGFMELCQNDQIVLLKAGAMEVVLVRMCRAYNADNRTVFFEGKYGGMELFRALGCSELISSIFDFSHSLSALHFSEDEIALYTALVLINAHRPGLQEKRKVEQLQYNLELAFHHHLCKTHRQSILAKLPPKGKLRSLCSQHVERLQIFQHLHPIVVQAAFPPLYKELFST
protocol summary: Gal4 ligand binding assay (RORγt Gal fusion luciferase reporter assay in HEK293T cells)
assay context: RORγt inverse agonists in RORγt Gal fusion assay
pIC50: −log10 of the molar value.

[[record]]
compound = "CC(C)c1c(F)c(CN2CC3(C2)CN(S(C)(=O)=O)C3)cc(F)c1-c1ccc(C(O)(C(F)(F)F)C(F)(F)F)cc1"
experimental_readout = "pIC50"
readout_value = "> 7.30"


Data request: Value lookup for pIC50; key = CCc1c(F)c(CN2CC3(C2)CN(S(C)(=O)=O)C3)cc(F)c1-c1ccc(C(O)(C(F)(F)F)C(F)(F)F)cc1F
Data returned: > 7.30

Data request: Value lookup for pIC50; key = Cc1cc(C(O)(C(F)(F)F)C(F)(F)F)ccc1-c1cccc(N2CC3(C2)CN(S(C)(=O)=O)C3)n1
Data returned: < 6.60

Data request: Quick one: pIC50 for CS(=O)(=O)N1CC2(CN(Cc3cc(F)c(-c4ccc(C(O)(C(F)(F)F)C(F)(F)F)cc4Cl)c(C4CC4)c3F)C2)C1 ?
Data returned: > 7.30

Data request: Form field: reported pIC50 of CCc1cc(CN2CC3(C2)CN(C(=O)OC(C)(C)C)C3)ccc1-c1ccc(C(O)(C(F)(F)F)C(F)(F)F)cc1
Data returned: 6.60 to 7.30
